For each of the compounds below, state its IC50.
# Target System: Type-1 angiotensin II receptor (Oryctolagus cuniculus)
# Sequence (P34976 whole entry): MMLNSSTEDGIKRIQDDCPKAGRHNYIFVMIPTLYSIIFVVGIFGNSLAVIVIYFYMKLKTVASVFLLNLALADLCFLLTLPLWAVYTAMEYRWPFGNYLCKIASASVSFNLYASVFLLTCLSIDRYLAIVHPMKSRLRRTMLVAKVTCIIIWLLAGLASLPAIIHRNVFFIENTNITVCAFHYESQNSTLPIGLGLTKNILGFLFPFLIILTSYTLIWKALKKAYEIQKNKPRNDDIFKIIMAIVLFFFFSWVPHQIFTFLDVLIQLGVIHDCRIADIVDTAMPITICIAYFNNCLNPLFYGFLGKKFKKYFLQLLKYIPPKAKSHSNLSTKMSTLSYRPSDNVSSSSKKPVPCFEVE
# Method Summary: In vitro antagonist activity against angiotensin II receptor type 1 in rabbit aorta using [125I]-Sar, Ile AII.
Numbers only, in nM.

Example entries begin here.
Compound: CCc1nc2c(C)cc(C)nc2n1Cc1ccc(N(C)C(C(=O)O)c2ccccc2)c(C)c1 (centres undefined)
Units Of Measure: nM
Data Value: 70
//
Compound: CCc1nc2c(C)cc(C)nc2n1Cc1ccc(N(CC2CC2)C(C(=O)O)c2ccccc2)cc1 (centres undefined)
Units Of Measure: nM
Data Value: 31
//
Compound: CCc1nc2c(C)cc(C)nc2n1Cc1ccc(N(C)C(c2ccccc2)c2nnn[nH]2)cc1 (centres undefined)
Units Of Measure: nM
Data Value: 15
//
Compound: CCCN(c1ccc(Cn2c(CC)nc3c(C)cc(C)nc32)cc1)C(C(=O)O)c1ccccc1 (centres undefined)
Units Of Measure: nM
Data Value: 5.3
//
Compound: CCc1nc2c(C)cc(C)nc2n1Cc1ccc(N(CC(C)C)C(C(=O)O)c2ccccc2)cc1 (centres undefined)
Units Of Measure: nM
Data Value: 22

Could I get IC50 for every one of these entries?
1. C=CCN(c1ccc(Cn2c(CC)nc3c(C)cc(C)nc32)cc1)C(C(=O)NS(=O)(=O)c1ccccc1)c1ccccc1 (centres undefined)
2. CCc1nc2c(C)cc(C)nc2n1Cc1ccc(N(CC)C(C(=O)O)c2ccccc2)c(C)c1 (centres undefined)
3. CCc1nc2c(C)cc(C)nc2n1Cc1ccc(NC(C(=O)O)c2ccccc2)c(C)c1 (centres undefined)
4. CCc1nc2c(C)cc(C)nc2n1Cc1ccc(NC(C(=O)O)c2ccccc2)cc1 (centres undefined)

1. 1
2. 10
3. 100
4. 200

Could I get IC50 for every one of these entries?
1. CCc1nc2c(C)cc(C)nc2n1Cc1ccc(N(C)C(C(=O)O)c2ccccc2)cc1 (centres undefined)
2. CCc1nc2c(C)cc(C)nc2n1Cc1ccc(N(CC)C(C(=O)O)c2ccccc2Cl)cc1 (centres undefined)
3. CCc1nc2c(C)cc(C)nc2n1Cc1ccc(N(CC)C(C(=O)O)c2cc(F)ccc2F)cc1 (centres undefined)
4. CCc1nc2c(C)cc(C)nc2n1Cc1ccc(N(CC)C(C(=O)O)c2ccccc2)cc1 (centres undefined)
5. C=CCN(c1ccc(Cn2c(CC)nc3c(C)cc(C)nc32)cc1)C(C(=O)O)c1cc(F)ccc1F (centres undefined)
6. CCc1nc2c(C)cc(C)nc2n1Cc1ccc(N(C(C)CC)C(C(=O)O)c2ccccc2)cc1 (centres undefined)
7. C=CCN(c1ccc(Cn2c(CC)nc3c(C)cc(C)nc32)cc1)C(C(=O)O)c1ccccc1 (centres undefined)
8. CCc1nc2c(C)cc(C)nc2n1Cc1ccc(NC(C(=O)O)c2ccccc2C)c(C)c1 (centres undefined)

1. 8.2
2. 380
3. 88
4. 4
5. 200
6. 80
7. 5.3
8. 28

For the compound C=CCN(c1ccc(Cn2c(CC)nc3c(C)cc(C)nc32)cc1C)C(C(=O)O)c1ccccc1C (centres undefined) , give its reported IC50.
82

---

# Target System: Type-2 angiotensin II receptor (Rattus norvegicus)
# Sequence (P35351 whole entry): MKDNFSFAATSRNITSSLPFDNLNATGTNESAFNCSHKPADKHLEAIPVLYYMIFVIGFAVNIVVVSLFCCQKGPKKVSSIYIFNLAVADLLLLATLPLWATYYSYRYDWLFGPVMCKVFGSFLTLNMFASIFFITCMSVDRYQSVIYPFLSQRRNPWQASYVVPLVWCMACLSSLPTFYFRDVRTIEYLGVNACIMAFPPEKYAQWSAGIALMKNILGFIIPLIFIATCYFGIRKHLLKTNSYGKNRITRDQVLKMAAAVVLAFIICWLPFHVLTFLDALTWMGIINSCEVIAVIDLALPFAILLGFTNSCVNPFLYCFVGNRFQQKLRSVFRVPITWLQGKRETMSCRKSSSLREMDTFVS
# Method Summary: In vitro antagonist activity against angiotensin II type 2 (AT2) receptor in rat midbrain using [125I]- Sar, Ile AII.
Property Name: IC50 (µM)
Give bare numbers, in µM.

Example entries begin here.
Compound: CCCCN(c1ccc(Cn2c(CC)nc3c(C)cc(C)nc32)cc1)C(C(=O)O)c1ccccc1 (centres undefined)
IC50 / µM: 0.66
--
Compound: CCc1nc2c(C)cc(C)nc2n1Cc1ccc(NC(C(=O)O)c2ccccc2)cc1 (centres undefined)
IC50 / µM: 21
--
Compound: CCc1nc2c(C)cc(C)nc2n1Cc1ccc(N(C(C)CC)C(C(=O)O)c2ccccc2)cc1 (centres undefined)
IC50 / µM: 1.6
--
Compound: CCc1nc2c(C)cc(C)nc2n1Cc1ccc(NC(C(=O)O)c2ccccc2C)c(C)c1 (centres undefined)
IC50 / µM: 19

# input for lookup
For the compound C=CCN(c1ccc(Cn2c(CC)nc3c(C)cc(C)nc32)cc1)C(C(=O)O)c1ccccc1 (centres undefined) , give its reported IC50.
0.49
